meta.source: the Human Domainome abundance scans (Beltran et al. 2025)

B1: Zinc finger homeobox protein 4, residues 2086 to 2141; numbered along this chain, Q86UP3 (parent)
chain: RPRTRITDDQLKILRAYFDINNSPSEEQIQEMAEKSGLSQKVIKHWFRNTLFKERQ

Variants of: B1
Test: abundance fitness (aPCA) (normalised: wild type 0, dead -1); higher = more abundant; growth selection in yeast, the domain comes from the species named
Settings: Homo sapiens
Classes by abundance fitness: band 1 (below -0.3), band 2 (-0.3 to below -0.09), band 3 (-0.09 or more)

Bin? RPRTRITDDQLKILRAYFDINNSPSEEQIQGMAEKSGLSQKVIKHWFRNTLFKERQ
band 2

Try this variant next: RPRTRITDDQLKILRAYFDINNSGSEEQIQEMAEKSGLSQKVIKHWFRNTLFKERQ
band 1

Follow-up item: RPRTRITDDQLKILRAYFDINNSPSEEQIQEMAENSGLSQKVIKHWFRNTLFKERQ
band 2
